src = ChEMBL document CHEMBL1201862

System: ACHN
Assay: NCI tumour cell line growth inhibition, 48 h
The source made the active and inactive calls. No stated cut-off is given here; in the data, active = GI50 up to about 1.1 µM and inactive = higher.
Catalogue of GI50 values

Here is how some molecules turned out for GI50.
[
  {
    "MOLECULE": "O=[N+]([O-])c1ccc(SN=S=NSc2cccc(SN=S=NSc3ccc([N+](=O)[O-])cc3)c2)cc1",
    "GI50": "42.3 µM (inactive)"
  },
  {
    "MOLECULE": "C[C@]12CC[C@H]3[C@@H](CCC4=C[C@@H](N5CCCC5)CC[C@@]43C)[C@@H]1C/C(=C\\c1ccncc1)[C@@H]2O",
    "GI50": "17 µM (inactive)"
  },
  {
    "MOLECULE": "C/C(=N/NC(=O)c1ccccc1Nc1ccccc1C(=O)N/N=C(\\C)c1ccc(C)cc1)c1ccc(C)cc1",
    "GI50": "23.9 µM (inactive)"
  },
  {
    "MOLECULE": "CCOc1ccc(NC2=NC(=O)C(CC(=O)Nc3ccccc3[N+](=O)[O-])S2)cc1 (stereo unspecified)",
    "GI50": "> 100 µM (inactive)"
  },
  {
    "MOLECULE": "Cc1cnc2nc(-c3sccc3C)cc(O)c2c1",
    "GI50": "8.85 µM (inactive)"
  }
]

Q: Quote GI50 reported for CSc1ncc2c(n1)C(C#N)C1Sc3ccccc3N1C2=O (stereo unspecified) please.
A: 59.4 µM (inactive)

Q: Quote GI50 reported for COc1ccc2c(c1)c1c3n2CCNN=C3CCC1 please.
A: 72.4 µM (inactive)

Q: Supply measured GI50 of CCCCC(=O)c1c(O)ccc2c(C)cc(=O)oc12 in your reply.
A: 96.6 µM (inactive)

Q: Give the value of GI50 reported for the following: COC(=O)C1C=CCC2CCCCC21N1CCCC1 (stereo unspecified)
A: > 100 µM (inactive)

Q: // fetch GI50 given entry c1ccc2c(c1)SC1Sc3ccccc3[S+]21 (stereo unspecified)
A: 14.1 µM (inactive)

Q: Find the measured GI50 of O=c1oc(-c2ccc(O)cc2)cc2cc(O)ccc12 and report it.
A: 34.9 µM (inactive)

---

System: SK-OV-3
Experiment: NCI tumour cell line growth inhibition, 48 h
Calls of active or inactive are those of the source. Cut-off read from the data, not from the text of the source: active = GI50 up to about 1.1 µM and inactive = higher.
Respond only with the outcome that fits, drawn from Yes = active, No = inactive

Recorded results for 6 molecules are shown here.
[
  {
    "MOLECULE": "C=CCn1c(N)c(C#N)c(C#N)c1CCC",
    "ANSWER LABEL": "No"
  },
  {
    "MOLECULE": "CCC(=O)C(c1ccccc1)c1ccccn1 (stereo not given)",
    "ANSWER LABEL": "No"
  },
  {
    "MOLECULE": "CCC12C=CCN3CCC4(C(=C(C(=O)OC)C1)Nc1ccccc14)[C@H]32 (stereo not given in full)",
    "ANSWER LABEL": "No"
  },
  {
    "MOLECULE": "CCOC(=O)C(CC(C)C)NC(=O)CSc1nnc(COc2ccc(Cl)cc2)n1-c1ccccc1 (stereo not given)",
    "ANSWER LABEL": "No"
  },
  {
    "MOLECULE": "Nc1nc(N)c(-c2ccccc2)c(CCC(=O)Nc2ccc(Cl)cc2)n1",
    "ANSWER LABEL": "No"
  },
  {
    "MOLECULE": "O=C1c2ccccc2C(=O)c2sc(Nc3cc(Cl)ccc3Cl)nc21",
    "ANSWER LABEL": "No"
  }
]

Q: Hey, what did the test say about CC1(C)OCC(/C=C\C(O)CC2(C)OCCO2)CO1 (stereo not given) ?
A: No

Q: Hi, sorry to bother you, what did the test record for CSC(=N)NNC(=O)CCC(=O)Nc1ccccc1C(F)(F)F ?
A: No

Q: Could you check what this test reported for Cn1ccc2c(C(=O)c3ccccc3)cccc2c1=O ?
A: No

Q: Give the logged outcome of this assay for the following molecule: COc1ccc(-c2onc(-c3c(C)cc(C)cc3C)c2C2=NCCCN2)cc1
A: No

Q: Can you look up the reported call for O=C1/C(=C/c2ccc(O)c(O)c2)CCC/C1=C\c1ccc(O)c(O)c1 for me?
A: No

---

Test system: OVCAR-5
Assay: NCI tumour cell line growth inhibition, 48 h
The source made the active and inactive calls. Rule as the data show it: active = GI50 up to about 1.1 µM and inactive = higher.
Recorded GI50 values for a group of molecules are listed next.

Q: // fetch GI50 given entry C=CCn1c(N)c(C#N)c(C#N)c1CCC
A: > 100 µM (inactive)

Q: Provide only the value of recorded GI50 for CC1=C(C#N)C(=O)N(/N=C/c2ccc(Cl)cc2)C(=O)/C1=c1\o/c(=C2/C(=O)N(/N=C/c3ccc(Cl)cc3)C(=O)C(C#N)=C2C)c2nccnc12
A: > 100 µM (inactive)

---

Test system: MOLT-4
Assay: NCI tumour cell line growth inhibition, 48 h
The source made the active and inactive calls. No stated cut-off is given here; in the data, active = GI50 up to about 1.1 µM and inactive = higher.
ATTRIBUTE MEASURED: GI50

[
  {
    "COMPOUND": "N#CC(c1ccccc1)N(CCCCCCN(C(=O)c1ccccc1)C(C#N)c1ccccc1)C(=O)c1ccccc1 (stereo not given)",
    "MEASURED ON": "MOLT-4",
    "GI50": "34.4 µM (inactive)"
  },
  {
    "COMPOUND": "Cc1ccc(C(C)C)c(OCC(=O)N/N=C/c2c[nH]c3ccc(Br)cc23)c1",
    "MEASURED ON": "MOLT-4",
    "GI50": "3.3 µM (inactive)"
  },
  {
    "COMPOUND": "Nc1c2ccccc2nc2c1ccc1ncccc12",
    "MEASURED ON": "MOLT-4",
    "GI50": "5.15 µM (inactive)"
  },
  {
    "COMPOUND": "CN(C)CCCNC1=C(Cl)C(=O)c2c(O)ccc(O)c2C1=O",
    "MEASURED ON": "MOLT-4",
    "GI50": "2.58 µM (inactive)"
  },
  {
    "COMPOUND": "Cc1cn2c(/C=N/NC(=N)N)c(-c3cccc([N+](=O)[O-])c3)nc2s1",
    "MEASURED ON": "MOLT-4",
    "GI50": "1.77 µM (inactive)"
  }
]

Q: Give a short answer stating reported GI50 for Cc1nc2c(O)cc3c4c(n(Cc5ccccc5)c3c2nc1C)C(=O)CCC4 .
A: > 100 µM (inactive)

Q: Please list GI50 recorded for the compound CC1(C)OCC(/C=C\C(O)CC2(C)OCCO2)CO1 (stereo not given)
A: > 100 µM (inactive)

Q: Could you please provide reported GI50 for O=[N+]([O-])c1ccc(/C=N/C2CCCCC2)cc1 ? Thanks!
A: > 100 µM (inactive)

Q: Output GI50 of CCC[C@H](N[S+]([O-])c1ccc(C)cc1)C(C(=O)OCC)=C(c1ccccc1)c1ccccc1 (stereo not given in full)
A: 16.2 µM (inactive)

Q: Give GI50 for CC(=O)O[C@H]1CC[C@@]2(C)C(=C/C(=N\[N+](=O)[O-])[C@H]3C4CCC([C@H](C)CCCC(C)C)[C@@]4(C)CCC32)C1 (stereo not given in full)
A: > 100 µM (inactive)

Q: Give the reported GI50 for this compound. COc1cc(/C=N\O[Si](C)(C)C(C)(C)C)ccc1O[Si](C)(C)C(C)(C)C
A: 37.8 µM (inactive)

Q: Using the record for Cc1cc(Cl)nc2nc(Cl)c(N)cc12 , state its measured GI50.
A: 4.6 µM (inactive)

---

System: DMS-273
Experiment: NCI tumour cell line growth inhibition, 48 h
Activity calls are given as the source filed them. No stated cut-off is given here; in the data, active = GI50 up to about 1.1 µM and inactive = higher.
# GI50 annotations

[
  {
    "MOLECULE": "C=C1CC2(OC1=O)c1ccccc1C=Cc1ccccc12",
    "MEASURED ON": "DMS-273",
    "GI50": "14.8 µM (inactive)"
  },
  {
    "MOLECULE": "Cc1cc(C)n(-c2ccnc3cc(Cl)ccc23)n1",
    "MEASURED ON": "DMS-273",
    "GI50": "> 100 µM (inactive)"
  },
  {
    "MOLECULE": "Cc1c2cc[n+](C)cc2c(C)c2c1[nH]c1ccc(O)cc12 [ELLIPTINIUM ACETATE]",
    "MEASURED ON": "DMS-273",
    "GI50": "11.7 µM (inactive)"
  },
  {
    "MOLECULE": "O=C1/C(=C/c2ccc(O)c(O)c2)CCC/C1=C\\c1ccc(O)c(O)c1",
    "MEASURED ON": "DMS-273",
    "GI50": "2.06 µM (inactive)"
  },
  {
    "MOLECULE": "COc1ccc(-c2nnc(-c3nsc4ccccc34)o2)cc1",
    "MEASURED ON": "DMS-273",
    "GI50": "71.4 µM (inactive)"
  }
]

Q: Give a short answer stating reported GI50 for C#CCN(C(=O)C(F)(F)F)c1ccc(C(=O)c2ccc(N(CC#C)C(=O)C(F)(F)F)cc2)cc1 .
A: 24.1 µM (inactive)
